Hey, just so you know, these numbers are from patent US20180237497A1.

Field: log10(kon). Provide a value for each of the binders that follow.
# TESTED_TARGET: T1, human IGF2^1-67 (mature insulin-like growth factor 2) (human, UniProt P01344 25-91, biotinylated (site not stated) where immobilised on the chip (Tables 1-4))
# T1 construct: mature; also called mature IGF2; biotinylated IGF2
# T1 sequence (P01344 25-91): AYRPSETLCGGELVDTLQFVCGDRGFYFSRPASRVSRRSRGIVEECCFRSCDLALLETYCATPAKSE
# ASSAY_DETAILS: SPR kinetic, biotin-IGF2 on chip, pH 6.5
# Experimental: Measurements were carried out at 25° C. in MES-EP buffer, 20 mM MES pH 6.5, 150 mM NaCl, 3 mM EDTA, and 0.005% (v/v) surfactant P20). Data for KD expressed as mean of each experiment, and means of kon and koff are shown. […]
Parameter value (number): base-10 log of kon in M⁻¹ s⁻¹.

[in] What measured log10(kon) goes with IGF2R domain 11^AB3 (receptor, His6-tagged soluble domain 11; also called domain 11^E1544K, K1545S, L1547V; 1542YSKSGV1547) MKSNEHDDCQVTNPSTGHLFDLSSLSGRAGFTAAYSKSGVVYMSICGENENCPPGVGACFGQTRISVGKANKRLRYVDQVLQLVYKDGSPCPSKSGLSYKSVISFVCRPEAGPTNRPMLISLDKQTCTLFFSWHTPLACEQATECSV ?
[out] 6.54

[in] What measured log10(kon) goes with IGF2R domain 11^AB5 (receptor, His6-tagged soluble domain 11; also called 1542YAKGWG1547) MKSNEHDDCQVTNPSTGHLFDLSSLSGRAGFTAAYAKGWGVYMSICGENENCPPGVGACFGQTRISVGKANKRLRYVDQVLQLVYKDGSPCPSKSGLSYKSVISFVCRPEAGPTNRPMLISLDKQTCTLFFSWHTPLACEQATECSV ?
[out] 6.62

[in] What measured log10(kon) goes with domain 11^AB5 Q1569R P1597H (receptor, See m5) MKSNEHDDCQVTNPSTGHLFDLSSLSGRAGFTAAYAKGWGVYMSICGENENCPPGVGACFGRTRISVGKANKRLRYVDQVLQLVYKDGSHCPSKSGLSYKSVISFVCRPEAGPTNRPMLISLDKQTCTLFFSWHTPLACEQATECSV ?
[out] 6.37

[in] What measured log10(kon) goes with domain 11^AB3 Q1569R P1597H S1602H G1603K (receptor, See m5) MKSNEHDDCQVTNPSTGHLFDLSSLSGRAGFTAAYSKSGVVYMSICGENENCPPGVGACFGRTRISVGKANKRLRYVDQVLQLVYKDGSHCPSKHKLSYKSVISFVCRPEAGPTNRPMLISLDKQTCTLFFSWHTPLACEQATECSV ?
[out] 7.39

[in] What measured log10(kon) goes with IGF2R domain 11^WT (receptor, Soluble His6-tagged domain 11 from P. pastoris and/or E. coli; also called wild-type domain 11) MKSNEHDDCQVTNPSTGHLFDLSSLSGRAGFTAAYSEKGLVYMSICGENENCPPGVGACFGQTRISVGKANKRLRYVDQVLQLVYKDGSPCPSKSGLSYKSVISFVCRPEAGPTNRPMLISLDKQTCTLFFSWHTPLACEQATECSV ?
[out] 6.43
